FYI, the data here is from ChEMBL document CHEMBL1143711.

- Tested Target: Peroxisome proliferator-activated receptor delta (Homo sapiens)
- Sequence (Q03181 whole entry): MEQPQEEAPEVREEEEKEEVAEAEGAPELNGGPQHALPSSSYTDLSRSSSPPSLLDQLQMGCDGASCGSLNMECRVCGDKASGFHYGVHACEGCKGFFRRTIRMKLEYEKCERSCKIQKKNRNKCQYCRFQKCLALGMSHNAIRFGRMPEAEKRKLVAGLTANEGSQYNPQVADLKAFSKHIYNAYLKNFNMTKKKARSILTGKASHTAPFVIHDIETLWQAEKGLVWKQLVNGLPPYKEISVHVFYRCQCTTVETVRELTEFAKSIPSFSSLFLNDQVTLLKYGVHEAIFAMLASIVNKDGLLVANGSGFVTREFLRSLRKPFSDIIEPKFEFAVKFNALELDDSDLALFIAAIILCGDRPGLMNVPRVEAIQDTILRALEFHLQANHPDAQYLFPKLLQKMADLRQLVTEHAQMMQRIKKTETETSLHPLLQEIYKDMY
Measured Property: EC50 (nM)
# number only, unit nM dropped from output

For CCCCOc1ccc(C[C@@H](CC)C(=O)O)cc1CNC(=O)c1ccc(C(F)(F)F)cc1F , what is its reported EC50?
8.3
